- testMethodNotes: yeast display, Sf9 membrane polyspecificity reagent, FACS + sequencing; frameworks hold sequencing errors
measuredQuantity: polyreactivity (PSR sort gate)

QVQLVESGGGLVQAGGSLRLSCAASGRIFWGNGMGWYRQAPGKEREFVAAISKSGGSTYYADSVKGRFTISRDNAKNTVYLQMNSLKPEDTAVYYCNARTSRYRRGGDSWGQGTQVTVSS high polyreactivity
QVQLVESGGGLVQAGGSLRLSCAASGSTFDRYGMGWYRQAPGKERELVAAITWSVGSTYYADSVKGRFTISRDNAKNTVYLQMNSLKPEDTAVYYCNAGVLGVYTSYNGDDYWGQGTQVTVST low polyreactivity
QVQLVESGGGLVQAGGSLRLSCAASGSTLVYYDMGWSRQAPGKERELVATITGTDSTYYADSVKGRFTISRDNAKNTVYLQMNSLKPEDTADCAADRAASRPDYDYWGQGTQVTVSS low polyreactivity
QVQLVESGGGLVQSGGSLRLSCAASGFIFKLNAMGWYRPAPGKERELVATITRGGDTKYADSVKGRFTISRDNAKNTVYLQMNSLKPEDTAVEYCAARYTPSSYIYRFYNFYGYDYWGQGTQVTVSS high polyreactivity

Field: next sequence
Need polyreactivity (PSR sort gate) of QVQLVESGGGLVQAGGSLRLSCAASGRIFNTYAMGWYRQAPGKERELVARITWSAGRTYYADSVKGRFTISRDNAKNTVYLQMNSLKPEDTAVYYCAAEGFYRSSPVRTYIGYDYWGQGTQVTVSS , thanks.
high polyreactivity

---

- testMethodNotes: yeast display, Sf9 membrane polyspecificity reagent, FACS + sequencing; frameworks hold sequencing errors
measuredQuantity: polyreactivity (PSR sort gate)

Solved cases (10 shown):
QVQLVESGGGLVQAGGSLRLICAASGSTFLKYTMVWYRQAPWKERELVAAISKSGGSTYYADSVKGRFTISRDHAKNTVYLQMNSLKPEDTAVYYCAKVRSWVSSYGYGYWGQGTQVTVSS high polyreactivity
QVQLVESGGGLVQAGGSLRLICAASGITFSTYTMGWYRQAPRKEREFVAAISSRGGSTYYADSVKGRFTISRDNAKNTAYLQMNRLIPEVTAVYYCAAALVAPFDYWVQGTQVTVSS high polyreactivity
QVQLVESGGGLVQAGGSLRLSCAASGSTFRFYAMGWYRQEPGKERELVAAITSSGGSTYYADSVKGRFTISRDNAKNTVYLQMNSLKPEDTAVYYCNAYPNPVSYELDYWGQGTQVTVSS low polyreactivity
QVQLVESGGGLVQAGGSLRLNCAASGITYTQYAMGWYRQAPGKERELVAAISKRGGRTYYADSVKGRFTISRDNAKNTVYLQMNCLIPEDTAVYYCATVPYGEVDYWGQGTQVTVSS high polyreactivity
QVQLVESGGGLVQAGGSLRLSCAASGITFNPYVMGWYRQAPGKERELVAVITSGGSTNYADSVKGRFTISRDNAKITVYLEMNSLKPEDTAVYYCNVDRRPYYVWRVTYDYWGQGTQVTVSS low polyreactivity
QVQLVESGGGLVQAGGSLRLSCAASGSIFVGNAMGWYRQAPGKERELVATISWSGGSTYYADSVKGRFTISRDNAKNTVYLQMNSLKPEDTAVYYCAKTPYRRYRYGGYTYRTYDYWGQGTQVTVSS low polyreactivity
QVQLVESGGGLVQAGGSLRLSCAASGYIFKSYVMGWNRQEPGKESELVAAITWSGGSTYYADSVKGRFTISRDNAKNTVYLQMNSLKPEDTAVYYCAAYRRRYRTTYDYWGQGTQVTVSS high polyreactivity
QVQLVESGGGLVQAGGSLRLSCAASGRIFTRYAMGWYRQAPGKERELVAAISYGGGGTYYADSVKGRFTISRDNAKNTVYLQMNSLKPEDTAVYYCATDDPLSQINEQGMDYWGQGTQVTVSS low polyreactivity
QVQLVESGGGLVQAGGSLRLSCAASGFTFWLYAMGWYRQAPGKERELVAAISRNSVSTYYADSVKGRFTISRDNAKNTVYLQMNSLKPEDTAVYYCAVDQYATDDYWGQGTQVTVSS high polyreactivity
QVQLVESGGGLVQAGGSLRLSCAASGSTSVYAMGWYRQAPGKERELVAAITRGGSTYYADSVKGRFTISRDNAKNTVYLQMNRLKPEDTAVYYCAVETYYSIFDIYDYWGQGTQVTVSS low polyreactivity

For QVQLVEPGGGLVQAGGSLRLSCAASGFTFYDYAMGWYRQAPGKERELVARINGGGGTNYADSVKGRFTISRDNAKNTVYLQMNSLKPEDSAVYYCAADLYFRQGDVDLLRYDYWGQGTQVTVSS , what is its reported polyreactivity (PSR sort gate)?
low polyreactivity

Given QVQLVESGGGLVQAGGSLRLSCAASGSTFTFNAMGWYRKAPGKERELVAAISGSDVTTYYADSVKGRFTISRDNAKNSVYLQMNSLKPEDTAVYYCAAESYVTTVTGPHTGDYWGQGTQVTVSS , state its recorded polyreactivity (PSR sort gate).
low polyreactivity

May I ask what polyreactivity (PSR sort gate) has been recorded for QVQLVESGGGLVQAGGSLRLSCAASGSTFRGYTMGWYRQAPGKEREFVATISSRGGSTNYADSVKGRFTISRDNAKNTVYLQMNSMKPEDTAVYYCNVRRVWWEWPRGDSWGQGTQVTVSS ?
high polyreactivity

Can you look up the measured polyreactivity (PSR sort gate) of QVQLVESGGGLVQAGGSLRLSCDASGLIFSWYAMGWYRQPPGKERELVAAISKGGGSTYYADSVKGRFTISRDNAKITVYLQMNSLKPEDTAVYYCAAASSYGYGYWGQGTQVTVSS for me?
high polyreactivity

Given the sequence QVQLVESGGGLVQAGGSLRLSCAASGSISAGNAMGWYRQAPGKERELVAAISISAGRTYYADSVKGRFTISRDNAKNTVYLQMNSLKPEDTAVYYCNAYSSYIKYDYWGQGTQVTVSS , what is its reported polyreactivity (PSR sort gate)?
high polyreactivity

Request the reported polyreactivity (PSR sort gate) associated with QVQLVESGGGLVQAGGSLRLSCAASGIIFIYYTMGWYRQSPGKERELVAVITTSGDGTYYADSVKGRFTISRDNAKNTVYLQMNSLKPEDTAVYYCAASYSTWVSTRNDYWGQGTQVTVSS
low polyreactivity

I would be grateful if you could share the reported polyreactivity (PSR sort gate) for PVQLVESRGGLVQAGGSLRLSCAASGIIFQRYAMGWYRQAPGKERELVAAINFSGGSTYYADSVKGRFTISRDNAKNTVYLQMNSLKPEDTSVYYCARAGRYAAYSPFYYWGQGTQVTVSS .
high polyreactivity

Can you share its polyreactivity (PSR sort gate)? I mean this sequence: QVQLVESGGGLVQAGGSLRLSCAASGRTFWSYAMGWYRQAPGKVRELVAAITSSGGTTNYADSVKGRFTISRDNAKNTVYLQMNSLKPEDTAVYYCAADNGGAGYYYGYVWYDYWGQGTQVTVSS
low polyreactivity

// lookup polyreactivity (PSR sort gate) for QVQLVESGGGLVQAGGSLRLSCAASGSTFDGYTMGWYRQAPGKERELVAGISWSGTSTYYADSVKGRFTISRDNAKNTVYLQMNSLKPEDTAVYYCAADRYWFRLYTAGVTHRFGYWGQGTQVTVSS
low polyreactivity

Request the reported polyreactivity (PSR sort gate) associated with QVQLVESGGGLVQAGGSLRLSCAASGRTFVQNAMGWYRQAPGKERELVASIRYRDGSTYYADSVKGRFTISRDNAKNTVYLQMNSLKPEDTAVYYCAVRVTSDYYASRYYYWGQGSQVTVSS
high polyreactivity

Quick check: polyreactivity (PSR sort gate) of QVQLVESGGGLVQAGGSLRLSCAASGRIFYGYAMGWYRKAPVKEREFVAAITVSAGSTYYADSVKGRFTISRDNAKNTVYLLMNSLKPEDTAVYYCASKRYVYPSYRFDYWGQGTQVSVSS ?
low polyreactivity
